- Read-out: Thyroid Hormone Responsive (THRSP), THRSP (gene 7069)
- test name: LTEA_HepaRG_THRSP: Life Technologies and Expression Analysis (LTEA) Assay for Thyroid Hormone Responsive (THRSP) using HepaRG (AID 2283536)
- assay setup: mRNA level, 48 h; actives raise or lower the signal
Calls of active or inactive are those of the source. Rule for the calls: active = hit-call score of the fitted dose curve at least 0.9, where 1 is the maximum; inactive = score below 0.9.
Choose one outcome from this list and give only that: active, inactive

CN1CCC[C@H]1c1cccnc1 :: inactive
C#C[C@]1(O)CC[C@H]2[C@@H]3CCC4=CC(=O)CC[C@@H]4[C@H]3CC[C@@]21C :: active
CCCCCCCCCCCCc1ccccc1S(=O)(=O)O :: active
CCCCCCCCCCCCN1CCCC1=O :: inactive
CCCCCCCC(=O)O :: inactive
CCCCC(CC)COC(=O)CCCCC(=O)OCC(CC)CCCC (centres undefined) :: inactive

Request: Field: outcome | Entry: COc1ccc([N+](=O)[O-])cc1N
Result: active

Request: Try this compound too: CC(=O)CC(C)(C)O
Result: inactive

Request: Check CC(O)CO (centres undefined) too.
Result: inactive

----------
- test name: ACEA_ER_80hr: ACEA Biosciences xCELLigence Real-Time Cell Analysis on Estrogen Receptor Agonism for Proliferation (AID 2282667)
- assay setup: T47D proliferation, impedance (xCELLigence), 80 h
Results filed as inconclusive are left out. Activity calls are given as the source filed them. Rule for the calls: active = hit-call score of the fitted dose curve at least 0.9, where 1 is the maximum; inconclusive = response in the unintended direction; inactive = score below 0.9.
Use one of these outcomes when replying: active, inactive

c1ccc2c(c1)ccc1ccccc12 :: inactive

Request: Which outcome did this test record for the compound COC(=O)CCCCC(=O)OC ?
Result: inactive

Request: What do you get for N#C[C@@H]1CC(F)(F)CN1C(=O)CNC1CC2CCC(C1)N2c1ncccn1 (some centres undefined) ?
Result: active

Request: Please answer likewise for COCC(C)OCC(C)O (centres undefined)
Result: inactive

----------
- Read-out: Intercellular Adhesion Molecule 1 (ICAM1), ICAM1 (gene 3383)
- test name: BSK_KF3CT_ICAM1: BioMAP Diversity Plus: KF3CT Assay for Intercellular Adhesion Molecule 1 (ICAM1) Biomarker Activity (AID 2283067)
- assay setup: primary human keratinocytes with fibroblasts; actives raise or lower the signal
The source made the active and inactive calls. How the source made its calls: active means hit-call score of the fitted dose curve at least 0.9, where 1 is the maximum; inactive means score below 0.9.
Outcomes you can answer with include only these: Yes (active), No (inactive)

COCC(C)OCC(C)O (centres undefined) :: No
CCC(=C(c1ccc(O)cc1)c1ccc(OCCN(C)C)cc1)c1ccccc1 :: Yes
NCC(F)(F)C(F)(F)C(F)(F)C(F)(F)C(F)(F)C(F)(F)C(F)(F)F :: No

Then there is this compound:
Request: Give the logged outcome of this assay for the following compound: CC(O)CO (centres undefined)
Result: No

----------
- study system: Cellular tumor antigen p53 (Homo sapiens) (UniProt P04637)
- Sequence (P04637 whole entry, looked up): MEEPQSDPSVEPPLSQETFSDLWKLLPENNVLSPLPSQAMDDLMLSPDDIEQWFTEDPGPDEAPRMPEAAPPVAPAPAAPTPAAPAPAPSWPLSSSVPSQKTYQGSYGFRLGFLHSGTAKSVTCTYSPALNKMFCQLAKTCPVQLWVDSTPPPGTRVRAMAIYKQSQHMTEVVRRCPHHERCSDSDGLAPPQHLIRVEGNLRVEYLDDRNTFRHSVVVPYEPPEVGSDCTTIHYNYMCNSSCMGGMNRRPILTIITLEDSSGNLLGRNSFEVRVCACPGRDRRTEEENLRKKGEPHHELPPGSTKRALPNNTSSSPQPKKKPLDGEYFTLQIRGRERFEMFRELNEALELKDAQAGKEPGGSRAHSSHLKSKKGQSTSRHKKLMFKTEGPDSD
- test name: TOX21_p53_BLA_p4_ratio: Tox21 HCT-116 p53 Agonism Beta-lactamase Assay, Ratio, Phase 4 (AID 2283601)
Records with an inconclusive call do not appear. Active and inactive are the calls of the source. The calls were made as follows: active = hit-call score of the fitted dose curve at least 0.9, where 1 is the maximum; inconclusive = response in the unintended direction; inactive = score below 0.9.
Allowed answers: active, inactive

These recorded examples may help you get a feel for the data.
O=c1c(-c2ccc(O)cc2)coc2cc(O)ccc12 :: inactive
NC(=O)N(O)[C@@H]1C=C[C@H](Oc2cccc(Oc3ccc(F)cc3)c2)C1 :: active
NC(=O)N1C(=O)C(C(=O)c2cc(Cl)cs2)c2cc(F)c(Cl)cc21 (centres undefined) :: active

Kindly consider the entry below.
Request: I'd appreciate the recorded outcome for OCCC(F)(F)C(F)(F)C(F)(F)C(F)(F)C(F)(F)C(F)(F)C(F)(F)C(F)(F)F from this test.
Result: inactive
